Molecular target: NADH:ubiquinone oxidoreductase (complex I) (Bos taurus)
Assay: NADH:APAD+ transhydrogenation
Format: biochemical, bovine
value.type: IC50 (mM)
Answers are plain numbers, in mM.

Indicate its recorded IC50; the compound in question is Nc1ncnc2c1ncn2[C@@H]1O[C@H](CO)[C@@H](O)[C@H]1O
10

src = paper PMC3680915
